Just for reference, PubChem BioAssay AID1963845 is where these values come from.

Test system: 429239-143-T-J1-PDC complex spheroid viability;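 further: luminescence signal used as surrogate measure of viable cells; spheroids exposed to compounds for seven days before readout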
Assay: Anticancer human tumor 429239-143-T-J1-PDC patient-derived small cell lung carcinoma cell line growth inhibition [POLQ]
Details: second compound 3.16 µM; first compound 0.1 µM; stronger effect = lower value
Please use the following viability, T/C ranges when assigning a class: lo: < 40%; med: ≥ 40% and < 90%; hi: ≥ 90%

CCc1cc2c(N3CCc4c(cc(Cn5ccnc5)cc4-c4cn(C)nc4C(F)(F)F)C3=O)cc(C)nc2c(OC)n1 + COC1C(OC(N)=O)C(O)C(Oc2ccc3c(O)c(NC(=O)c4ccc(O)c(CC=C(C)C)c4)c(=O)oc3c2C)OC1(C)C	med

Q: Quick check: band for CCc1cc2c(N3CCc4c(cc(Cn5ccnc5)cc4-c4cn(C)nc4C(F)(F)F)C3=O)ccnc2c(OC)n1 + Nc1ccc(C#CCN(C(=O)Cc2ncc(C(F)(F)F)cc2C(F)(F)F)c2ccc(F)cc2)nn1
Ans: hi

Q: Quick check: band for CCc1c2c(nc3ccc(O)cc13)-c1cc3c(c(=O)n1C2)COC(=O)[C@]3(O)CC + Cc1cccc(N(C)C(=O)C2C(O)CCN2c2nc(C)cc(C(F)(F)F)c2C#N)c1
Ans: lo

Q: Quick check: band for Cn1ncnc1[C@H]1c2n[nH]c(=O)c3cc(F)cc(c23)N[C@@H]1c1ccc(F)cc1 + Cc1cccc(N(C)C(=O)C2C(O)CCN2c2nc(C)cc(C(F)(F)F)c2C#N)c1
Ans: lo

Q: Quick check: band for COc1cc(C2c3cc4c(cc3C(OC3OC5COC(C)OC5C(O)C3O)C3COC(=O)C23)OCO4)cc(OC)c1O (stereo unspecified) + Nc1ccc(C#CCN(C(=O)Cc2ncc(C(F)(F)F)cc2C(F)(F)F)c2ccc(F)cc2)nn1
Ans: hi

Q: Quick check: band for CNCc1ccc(-c2[nH]c3cc(F)cc4c3c2CCNC4=O)cc1 + Cc1cccc(N(C)C(=O)C2C(O)CCN2c2nc(C)cc(C(F)(F)F)c2C#N)c1
Ans: med

Q: Quick check: band for CC1COCCN1c1cc(-c2ccnn2C)c2ccnc(-c3ccn[nH]3)c2n1 (stereo unspecified) + Cc1cccc(N(C)C(=O)C2C(O)CCN2c2nc(C)cc(C(F)(F)F)c2C#N)c1
Ans: med

Q: Quick check: band for CC1COCCN1c1cc(-c2ccnn2C)c2ccnc(-c3ccn[nH]3)c2n1 (stereo unspecified) + Nc1ccc(C#CCN(C(=O)Cc2ncc(C(F)(F)F)cc2C(F)(F)F)c2ccc(F)cc2)nn1
Ans: med

Q: Quick check: band for CC1COCCN1c1cc(C2(S(C)(=N)=O)CC2)nc(-c2ccnc3[nH]ccc23)n1 (stereo unspecified) + Nc1ccc(C#CCN(C(=O)Cc2ncc(C(F)(F)F)cc2C(F)(F)F)c2ccc(F)cc2)nn1
Ans: med

Q: Quick check: band for CC(C)n1c(=O)n(C)c2cnc3cc(F)c(-c4ccc(OCCCN5CCCCC5)nc4)cc3c21 + Cc1cccc(N(C)C(=O)C2C(O)CCN2c2nc(C)cc(C(F)(F)F)c2C#N)c1
Ans: hi

Q: Quick check: band for COc1cccc2c1C(=O)c1c(O)c3c(c(O)c1C2=O)CC(O)(C(=O)CO)CC3OC1CC(N)C(O)C(C)O1 (stereo unspecified) + Nc1ccc(C#CCN(C(=O)Cc2ncc(C(F)(F)F)cc2C(F)(F)F)c2ccc(F)cc2)nn1
Ans: lo
